# SYSTEM UNDER TEST: T1, huCD3e-mFc (human, UniProt P07766 23-126)
# T1 construct: not shown: mFc, not described
# T1 sequence (P07766 23-126): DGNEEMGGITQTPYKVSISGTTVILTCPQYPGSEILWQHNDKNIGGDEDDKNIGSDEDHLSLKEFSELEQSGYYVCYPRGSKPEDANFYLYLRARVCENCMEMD
# ASSAY TEXT: Pool 3 screen
One threshold, 10 nM, splits the recorded Kd values: lower ones are yes, equal or higher ones are no.

INSERT INTO results (binder, assigned_class) VALUES
  ('AC3881 (CD3.377) (scFv, V domains shown, Pool 3 format (remarks)) VH: EVQLVESGGGIVQPGGSLRLSCAASGFTFSTYAMNWVRQAPGKGLEWVGRIRTKRNNYATTYADSVKGRFTISRDDSKNTVYLQMNSLKTEDTAVYYCVRHENFGNSYVSWFAHWGQGTLVTVSS VL: ELVVTQEPSLTVSPGGTVTLTCRSSNGAVTSSNYANWVQQKPGQAPRGLIGGTNKRAPGTPARFSGSLLGGKAALTLSGVQPEDEAVYYCALWYPNLWVFGGGTKLTVL', 'no'),
  ('AC3880 (CD3.376) (scFv, V domains shown, Pool 3 format (remarks)) VH: EVQLVESGGGIVQPGGSLRLSCAASGFTFSTYAMNWVRQAPGKGLEWVGRIRTKPNNYATYYADSVKGRFTISRDDSKNTVYLQMNSLKTEDTAVYYCVRHENFGNSYVSWFAHWGQGTLVTVSS VL: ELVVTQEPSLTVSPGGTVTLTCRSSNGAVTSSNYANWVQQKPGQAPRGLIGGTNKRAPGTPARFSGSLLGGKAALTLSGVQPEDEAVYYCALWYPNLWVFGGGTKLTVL', 'no'),
  ('AC3799 (CD3.295) (scFv, V domains shown, Pool 3 format (remarks)) VH: EVQLVESGGGIVQPGGSLRLSCAASGFTFSTYAMNWVRQAPGKGLEWVGRIRTKRNNYATYYADSVKGRFTISRDDSKNTVYLQMNSLKTEDTAVYYCVRHENFGNSYVSWFAHWGQGTLVTVSS VL: ELVVTQEPSLTVSPGGTVTLTCRSSNGAVTSSNYANWVQQKPGQAPRGLIGGTNKRAPGTPARFSGSLNGGKAALTLSGVQPEDEAVYYCALWYPNLWVFGGGTKLTVL', 'yes'),
  ('AC3817 (CD3.313) (scFv, V domains shown, Pool 3 format (remarks)) VH: EVQLVESGGGIVQPGGSLRLSCAASGFTFSTYAMNWVRQAPGKGLEWVGRIRTKRNDYATYYADSVKGRFTISRDDSKNTLYLQMNSLKTEDTAVYYCVRHENFGNSYVSWFAHWGQGTLVTVSS VL: ELVVTQEPSLTVSPGGTVTLTCRSSNGAVTSSNYANWVQQKPGQAPRGLIGGTNKRAPGTPARFSGSLNGGKAALTLSGVQPEDEAVYYCALWYPNLWVFGGGTKLTVL', 'yes');
